These entries and their values trace back to patent US20060183759A1.

Target: transglutaminase 2 (TGase 2) (Homo sapiens, UniProt P21980)
Sequence (P21980 1-687): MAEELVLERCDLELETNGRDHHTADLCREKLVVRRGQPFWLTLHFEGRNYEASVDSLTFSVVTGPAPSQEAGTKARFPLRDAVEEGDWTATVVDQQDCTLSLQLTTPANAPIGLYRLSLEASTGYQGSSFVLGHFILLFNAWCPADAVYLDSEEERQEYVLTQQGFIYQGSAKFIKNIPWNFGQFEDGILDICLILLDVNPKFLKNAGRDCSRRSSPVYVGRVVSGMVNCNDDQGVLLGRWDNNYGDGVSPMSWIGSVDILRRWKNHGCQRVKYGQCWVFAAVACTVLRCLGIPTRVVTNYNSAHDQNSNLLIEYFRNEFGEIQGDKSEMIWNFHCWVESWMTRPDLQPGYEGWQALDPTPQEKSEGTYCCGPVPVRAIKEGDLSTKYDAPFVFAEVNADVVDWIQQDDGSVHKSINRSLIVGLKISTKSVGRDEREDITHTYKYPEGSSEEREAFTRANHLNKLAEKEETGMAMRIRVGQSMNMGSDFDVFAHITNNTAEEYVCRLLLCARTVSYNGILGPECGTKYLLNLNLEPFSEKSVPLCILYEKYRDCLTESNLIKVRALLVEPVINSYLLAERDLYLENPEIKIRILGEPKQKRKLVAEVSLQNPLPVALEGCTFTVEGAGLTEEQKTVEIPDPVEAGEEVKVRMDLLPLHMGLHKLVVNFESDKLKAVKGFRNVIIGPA
Assay: TGase 2 transpeptidase fluorescence assay: incorporation of KXD into N,N-dimethylated-casein (Std and FPC formats)
Format: biochemical
Conditions: standard format (Std): reactions terminated after 60 min, FI recorded, four-parameter fit
MEASURED_ATTRIBUTE: IC50 (µM)

Consider the worked cases shown below.
# CPD_SMILES, IC50 / µM
records = [
    ("NNC(=O)CSc1nc2scc(-c3ccccc3)c2c(=O)n1Cc1ccccc1", 2.3),
    ("Cn1c(SCC(=O)NN)nc2scc(-c3ccccc3)c2c1=O", 8.4),
    ("NNC(=O)CSc1nc2scc(-c3ccccc3)c2c(=O)n1-c1ccccc1F", 0.5),
]

(P) NNC(=O)CSc1nc2scc(-c3ccccc3)c2c(=O)n1-c1ccc(F)cc1
(Q) COc1ccc(-n2c(SCC(=O)NN)nc3scc(-c4ccccc4)c3c2=O)cc1
Ask: Between P and Q , whose measured IC50 reads higher? Indicate which entry you chose by stating its label.
Result: Q
(Q: 2.1 µM, P: 1.3 µM)

###

biological target: transglutaminase 2 (TGase 2) (Homo sapiens, UniProt P21980); test: TGase 2 transpeptidase fluorescence assay: incorporation of KXD into N,N-dimethylated-casein (Std and FPC formats); assay type: biochemical; conditions: full progress curves (FPC); IC50=[I]/{(vc/vss)−1}, from steady-state velocity; read-out: IC50 (μM, FPC)
MEASURED_ATTRIBUTE: IC50 (µM)

# MOLECULE, IC50 [µM]
records = [
    ("COc1ccc(-c2csc3nc(SCC(=O)NN)n(-c4cccc(F)c4)c(=O)c23)cc1", 0.28),
    ("CC(C)(C)OC(=O)N1CCc2c(sc3nc(SCC(=O)NN)n(-c4cccc(F)c4)c(=O)c23)C1", 1.1),
    ("COc1cccc(-c2csc3nc(SCC(=O)NN)n(-c4cccc(F)c4)c(=O)c23)c1", 0.14),
    ("NNC(=O)CSc1nc2scc(-c3cccc(F)c3)c2c(=O)n1-c1cccc(F)c1", 0.29),
    ("NNC(=O)CSc1nc2scc(-c3ccccc3)c2c(=O)n1-c1ccccc1F", 0.16),
]

(1) NNC(=O)CSc1nc2scc(-c3ccccc3)c2c(=O)n1-c1ccccc1
(2) NNC(=O)CSc1nc2sc3c(c2c(=O)n1-c1cccc(F)c1)C(c1ccccc1)CCC3 (stereo not drawn)
(3) NNC(=O)CNc1nc2scc(-c3ccccc3)c2c(=O)n1-c1ccccc1
(4) NNC(=O)CSc1nc2ccc(-c3ccccc3)cc2c(=O)n1-c1cccc(F)c1
Ask: Would you mind ranking these molecules by ascending IC50? Ranked list of labels, please, in the requested order.
Result: 2, 1, 4, 3

###

Biological target: transglutaminase 2 (TGase 2) (Homo sapiens)
Sequence (P21980 1-687): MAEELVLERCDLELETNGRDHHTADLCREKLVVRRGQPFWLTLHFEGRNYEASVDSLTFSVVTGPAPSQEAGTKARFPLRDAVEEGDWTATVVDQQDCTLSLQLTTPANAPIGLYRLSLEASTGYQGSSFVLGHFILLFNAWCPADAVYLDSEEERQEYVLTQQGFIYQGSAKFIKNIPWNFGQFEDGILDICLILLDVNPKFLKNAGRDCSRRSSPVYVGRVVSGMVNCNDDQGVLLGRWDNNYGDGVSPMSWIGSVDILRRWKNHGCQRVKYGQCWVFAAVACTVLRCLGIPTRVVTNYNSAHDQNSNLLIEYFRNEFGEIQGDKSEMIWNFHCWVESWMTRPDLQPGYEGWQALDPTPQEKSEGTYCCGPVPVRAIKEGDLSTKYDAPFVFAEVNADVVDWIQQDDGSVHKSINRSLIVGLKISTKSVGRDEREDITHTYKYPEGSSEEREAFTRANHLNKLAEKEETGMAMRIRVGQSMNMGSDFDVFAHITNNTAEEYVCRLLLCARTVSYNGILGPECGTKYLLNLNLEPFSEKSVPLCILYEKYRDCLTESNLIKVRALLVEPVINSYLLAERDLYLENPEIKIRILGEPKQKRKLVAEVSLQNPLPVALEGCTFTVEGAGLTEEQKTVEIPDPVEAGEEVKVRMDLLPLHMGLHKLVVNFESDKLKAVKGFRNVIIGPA
Test: TGase 2 transpeptidase fluorescence assay: incorporation of KXD into N,N-dimethylated-casein (Std and FPC formats)
Format: biochemical
Conditions: standard format (Std): reactions terminated after 60 min, FI recorded, four-parameter fit
MEASURED_ATTRIBUTE: IC50 (µM)

# CPD_SMILES, IC50 (µM)
data = [
    ("NNC(=O)CSc1nc2ccccc2c(=O)n1-c1ccccc1", 18),
]

(a) NNC(=O)COc1nc2scc(-c3ccccc3)c2c(=O)n1-c1ccccc1
(b) NNC(=O)CSc1nc2scc(-c3ccccc3)c2c(=O)n1-c1cc(F)ccc1F
(c) COc1cccc(-c2csc3nc(SCC(=O)NN)n(-c4cccc(F)c4)c(=O)c23)c1
Ask: Please rank these compounds by IC50 in descending order. Ranked list of labels, please, in the requested order.
Result: a, b, c
(a: 4.5 µM, b: 0.59 µM, c: 0.21 µM)

###

Target: transglutaminase 2 (TGase 2) (Homo sapiens, UniProt P21980)
Sequence (P21980 1-687): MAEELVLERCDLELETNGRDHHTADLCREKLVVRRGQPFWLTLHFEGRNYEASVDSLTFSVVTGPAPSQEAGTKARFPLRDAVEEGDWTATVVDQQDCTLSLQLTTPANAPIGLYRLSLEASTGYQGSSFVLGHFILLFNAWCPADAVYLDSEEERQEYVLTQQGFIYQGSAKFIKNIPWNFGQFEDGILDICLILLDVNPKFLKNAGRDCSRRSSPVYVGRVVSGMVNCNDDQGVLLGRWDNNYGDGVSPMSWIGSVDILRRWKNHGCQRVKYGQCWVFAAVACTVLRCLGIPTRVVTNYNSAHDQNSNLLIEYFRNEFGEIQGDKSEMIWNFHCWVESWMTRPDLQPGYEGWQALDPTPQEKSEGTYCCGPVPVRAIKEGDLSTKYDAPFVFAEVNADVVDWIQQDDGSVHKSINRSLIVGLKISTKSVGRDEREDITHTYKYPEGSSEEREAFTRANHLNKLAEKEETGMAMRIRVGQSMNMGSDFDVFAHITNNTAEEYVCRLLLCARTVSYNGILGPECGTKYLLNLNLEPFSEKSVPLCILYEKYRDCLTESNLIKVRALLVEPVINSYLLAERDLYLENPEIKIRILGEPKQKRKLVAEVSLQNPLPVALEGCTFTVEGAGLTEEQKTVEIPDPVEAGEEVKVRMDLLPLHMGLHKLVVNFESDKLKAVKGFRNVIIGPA
Assay: TGase 2 transpeptidase fluorescence assay: incorporation of KXD into N,N-dimethylated-casein (Std and FPC formats)
Assay type: biochemical
Details: standard format (Std): reactions terminated after 60 min, FI recorded, four-parameter fit
Measured IC50 of individual entries

Consider the worked cases shown below.
# CPD_SMILES, IC50
rows = [
    ("CCOC(=O)CSc1nc2scc(-c3ccccc3)c2c(=O)n1-c1ccc(F)cc1", "> 20 µM"),
    ("O=C(CSc1nc2scc(-c3ccc(F)cc3)c2c(=O)n1-c1ccc(F)cc1)NO", "> 20 µM"),
]

Let us examine a further case.
Ask: So what's the measured IC50 for this one? "NNC(=O)CSc1nc2sc(-c3ccccc3)cc2c(=O)n1-c1ccccc1"
Result: > 20 µM

###

target: UniProt:P21980; assay: TGase 2 transpeptidase fluorescence assay: incorporation of KXD into N,N-dimethylated-casein (Std and FPC formats); type: biochemical; conditions: standard format (Std): reactions terminated after 60 min, FI recorded, four-parameter fit
MEASURED_ATTRIBUTE: IC50 (µM)

# COMPOUND, MEASURED_ATTRIBUTE, TEST_VALUE
measured = [
    ("NNC(=O)CSc1nc2scc(-c3ccccc3)c2c(=O)n1-c1cc(F)cc(F)c1 [986-27]", "IC50", 0.48),
]

(a) NNC(=O)CSc1nc2scc(-c3ccccc3)c2c(=O)n1-c1ccccc1Cl [986-23]
(b) NNC(=O)CSc1nc2scc(-c3ccc(F)cc3)c2c(=O)n1-c1ccccc1 [986-08]
Ask: Lab log: flag the item ( a or b ) with the smaller IC50 figure. Indicate which entry you chose by stating its label.
Result: b
(b: 0.8 µM, a: 1.8 µM)
